System: Staphylococcus aureus
ASSAY_PROTOCOL: Antimicrobial activity against Staphylococcus aureus 6 expressing inducible ermC after 20 hrs by agar dilution method
MEASURE: MIC (mg/L)

[
  {
    "COMPOUND": "CCOC(=O)[C@H]1[C@H](C)O[C@@H](O[C@H]2[C@H](N(C)C)[C@@H](O)[C@H](O[C@H]3[C@@H](CC=O)C[C@@H](C)[C@@H](O)CN(C)CC(/C=C\\Cc4ccnc5ccccc45)CCOC(=O)C[C@@H](OC(=O)CC)[C@@H]3OC)O[C@@H]2C)C[C@@]1(C)O (stereo in doubt; form 2)",
    "MEASURE": "MIC",
    "OBSERVED_MEASUREMENT": 4
  },
  {
    "COMPOUND": "CCOC(=O)[C@H]1[C@H](C)O[C@@H](O[C@H]2[C@H](N(C)C)[C@@H](O)[C@H](O[C@H]3[C@@H](CC=O)C[C@@H](C)[C@@H](O)CN(C)CC(/C=C/Cc4cnc5ccccc5c4)CCOC(=O)C[C@@H](OC(=O)CC)[C@@H]3OC)O[C@@H]2C)C[C@@]1(C)O (stereo in doubt; form 2)",
    "MEASURE": "MIC",
    "OBSERVED_MEASUREMENT": 0.5
  },
  {
    "COMPOUND": "CCOC(=O)[C@H]1[C@H](C)O[C@@H](O[C@H]2[C@H](N(C)C)[C@@H](O)[C@H](O[C@H]3[C@@H](CC=O)C[C@@H](C)[C@@H](O)CN(CCCCc4ccccc4)CCC(C)NC(=O)C[C@@H](OC(=O)CC)[C@@H]3OC)O[C@@H]2C)C[C@@]1(C)OC(C)=O (stereo in doubt; form 2)",
    "MEASURE": "MIC",
    "OBSERVED_MEASUREMENT": 0.5
  },
  {
    "COMPOUND": "CCOC(=O)[C@H]1[C@H](C)O[C@@H](O[C@H]2[C@H](N(C)C)[C@@H](O)[C@H](O[C@H]3[C@@H](CC=O)C[C@@H](C)[C@@H](O)CN(C)CCC(/C=C/Cc4ccnc5ccccc45)NC(=O)C[C@@H](OC(=O)CC)[C@@H]3OC)O[C@@H]2C)C[C@@]1(C)O (stereo in doubt)",
    "MEASURE": "MIC",
    "OBSERVED_MEASUREMENT": 2
  },
  {
    "COMPOUND": "CCOC(=O)[C@H]1[C@H](C)O[C@@H](O[C@H]2[C@H](N(C)C)[C@@H](O)[C@H](O[C@H]3[C@@H](CC=O)C[C@@H](C)[C@@H](O)CN(C)CCC(CCCc4ccnc5ccccc45)NC(=O)C[C@@H](OC(=O)CC)[C@@H]3OC)O[C@@H]2C)C[C@@]1(C)O (stereo in doubt; form 1)",
    "MEASURE": "MIC",
    "OBSERVED_MEASUREMENT": 1
  }
]
